# target entity: RXRγ (UniProt P28705)
property: Kd (µM)

I = CCOc1c(\C(CC)=C(F)/C=C/C(C)=C/C(=O)O)cc2c(c1Br)C(C)(C)CC=C2C(C)C [Compound A-170]
II = CCOc1c(\C(CC)=C(F)/C=C/C(C)=C/C(=O)O)cc2c(c1Br)C(C)(C)CC=C2C(C)CC (stereo not drawn) [Compound A-176]
Query block: Hi, I'm comparing two records. Which one has the lower Kd, I or II ? Write down the label of the entry you select.
Result block: I

* * *

# target entity: RXRβ (UniProt P28704)
# experiment notes: holoreceptor transactivation assay, RXRβ
# reported conditions: holoreceptor transactivation; read-out: RXR Trans. EC50 β
property: EC50 (nM)

A selection of reference data follows.
{"compound": "CCOc1cc2c(cc1\\C(CC)=C(F)/C=C/C(C)=C/C(=O)O)C(C(C)(C)C)=CCC2(C)C", "property": "EC50", "observed value": 7}
{"compound": "COc1cc2c(cc1\\C(C)=C(F)/C=C/C(C)=C/C(=O)O)C(C(C)C)=CC(C)(C)O2", "property": "EC50", "observed value": 51}

1 = CCOc1c(\C(=C/C=C/C(C)=C/C(=O)O)CC)cc2c(c1Cl)OC(C)(C)C=C2C(C)C
2 = CCOc1cc2c(cc1\C(C)=C(F)/C=C/C(C)=C/C(=O)O)C=CCC2(C)C
3 = CCOc1c(\C(CC)=C(F)/C=C/C(C)=C/C(=O)O)cc2c(c1Br)C(C)(C)CC=C2C(C)C
4 = CCOc1c(\C(C)=C(F)/C=C/C(C)=C/C(=O)O)cc2c(c1Cl)OC(C)(C)C=C2C(C)C
5 = CC/C(=C/C=C/C(C)=C/C(=O)O)c1cc2c(cc1OC)OC(C)(C)C=C2C(C)C
Query block: Sort low-to-high on EC50, please. When ranking, write the labels in the order the request describes.
Result block: 3, 5, 4, 1, 2
(3: 1 nM, 5: 4.4 nM, 4: 52 nM, 1: 88 nM, 2: 368 nM)
